Target: T1, MPDZ_10, O75970
T1 sequence (O75970 1624-1722, limits assumed, looked up): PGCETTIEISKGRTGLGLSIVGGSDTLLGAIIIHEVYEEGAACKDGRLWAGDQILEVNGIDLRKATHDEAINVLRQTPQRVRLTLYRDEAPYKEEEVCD
Test: holdup assay
Parameters: key: below the threshold = too weak to quantify, mostly under pKd 3.1 to 4
Details: plain residues with an end cap or a label only (N-terminal biotin on a linker: ado-ado)
readout.label: pKd

binder | measured
SNAGNTATKA [NOSTRIN, Q8IVI9] | below the threshold
DDEDRLVIEI [ZNF831, Q5JPB2] | below the threshold
TKGPRGPTRV [SAPCD1, Q5SSQ6] | 4.4
GSGAVEMESV [AQP6, Q13520] | below the threshold
LPHGHSTTRV [NLGN4X, Q8N0W4] | 3.83
SKSNFGSEPL [KIF17, Q9P2E2] | below the threshold
LPHPHSTTRV [NLGN2, Q8NFZ4] | 3.62
TACCHSETVV [TGFA, P01135] | below the threshold
RKPKPSSSCC [RAB9A, P51151] | below the threshold
EALLQMESVA [CAVIN3, Q969G5] | below the threshold
VNKSKLLTDV [KCNA1, Q09470] | below the threshold
TSQESEDTYL [TBC1D10A, Q9BXI6] | below the threshold
KSGKQTMLVV [TRIM29, Q14134] | 3.48
QMNQTLPVQV [EPHB3, P54753] | 3.49
KKMPSIESDV [GRIN2A, Q12879] | below the threshold
SAKVRTVTSV [RASL11B, Q9BPW5] | below the threshold
EVNETDDTKM [KCNJ1, P48048] | below the threshold
QPCFNKLFPL [LPXN, O60711] | below the threshold
EKKTLIGIKL [GOT1L1, Q8NHS2] | below the threshold
IPLDGETEEL [MYOZ1, Q9NP98] | below the threshold
GQEEQVTTRL [TRPC5, Q9UL62] | below the threshold
LSEFKAMDSI [CTNNA1, P35221] | below the threshold
LRSPRTPSEV [OR10G3, Q8NGC4] | 3.67
GNSVLKSTQF [SLC22A12, Q96S37] | below the threshold
VRNLPESEEL [MYOZ3, Q8TDC0] | below the threshold
DDPSTAETVL [ABCA7, Q8IZY2] | below the threshold
RRRESYSTTV [EVI5, O60447] | below the threshold
RRISSLESEV [GRIN2C, Q14957] | below the threshold
PDGQCTVTEV [RNF146, Q9NTX7] | below the threshold
PRISRSQSEL [CCDC134, Q9H6E4] | below the threshold

# credit: paper PMC9482650
